Tested on: SK-OV-3 ovarian
Procedure details: NCI tumour cell line growth inhibition, 48 h; in the data active = GI50 below about 0.43 µM; inactive = the rest
Your answer must be one of the following: y = active, n = inactive

{"Compound": "CCN(CC)CCCC(C)Nc1c(C)cnc2cc(Cl)c(C)cc12 (stereo unspecified)", "Target of assay": "SK-OV-3 ovarian", "Category label": "n"}
{"Compound": "CCS(=O)(=O)c1ccc(OC)c(Nc2ncc(-c3cccc(OC)c3)o2)c1", "Target of assay": "SK-OV-3 ovarian", "Category label": "n"}
{"Compound": "CCC[CH2][Sn]1([CH2]CCC)[O]C(=O)C(C(C)C)N=Cc2ccccc2[O]1 (stereo unspecified)", "Target of assay": "SK-OV-3 ovarian", "Category label": "n"}
{"Compound": "CC(=O)OC1CC(O)C23COC(O)C1(C)C2CC(O)C1(C)C3C(=O)C(O)C2(C)C(c3ccoc3)CC3OC321 (stereo unspecified)", "Target of assay": "SK-OV-3 ovarian", "Category label": "n"}
{"Compound": "O=C(CCl)Nc1ccc(Cl)cc1", "Target of assay": "SK-OV-3 ovarian", "Category label": "n"}
{"Compound": "COC(=O)Nc1nc2ccc(Oc3ccc(NC(=O)Nc4ccccc4)cc3)cc2[nH]1", "Target of assay": "SK-OV-3 ovarian", "Category label": "y"}

Req: Hey, what did the test say about CCOC(=O)c1cc(/C(=N\O)c2cc(OC)c(OC)c(OC)c2)n2cc(C)cc(C)c12 ?
Resp: n

Req: Hi, do you know how CCOC(=O)c1c(CN2CCN(c3ccccc3)CC2)n(-c2ccccc2)c2cc(Br)c(O)cc12 came out in this test?
Resp: n

Req: Which outcome did this test record for the compound N.N.N.N.N.O=C([O-])c1nn[n-]n1.[Cl-].[Co+3] ?
Resp: n

Req: Given CN(C)c1ccc(N)cc1 , state the outcome it received in this test.
Resp: n

Req: Hi team, can someone confirm the assay call for COc1ccc2c(c1)C(=O)c1c-2n(CCCn2ccnc2)c(=O)c2ccccc12 ?
Resp: n
